TEST DETAILS: in vivo
TEST CONDITIONS: mouse, po, 50 mg/kg
QUANTITY KIND: Cmax (ng/mL)
Expressed in ng/mL, but write only the number.

Specify reported Cmax for the compound shown: O=C(O)c1cn(C2CC2)c2cc(N3CCNCC3)c(F)cc2c1=O
5900

###

Tested on: Pseudomonas aeruginosa
TEST DETAILS: In vitro antibacterial activity against Pseudomonas aeruginosa A 9243.
Type: functional
TEST CONDITIONS: Pseudomonas aeruginosa; read-out: MIC
Catalogue of log10 MIC values
Heads up, the numbers here are log10 of MIC in µg/mL units.

CC1(C)CN(c2nc3c(cc2F)c(=O)c(C(=O)O)cn3C(C)(C)C)C[C@H]1N    0.30
C[C@H]1CN(c2nc3c(cc2F)c(=O)c(C(=O)O)cn3C(C)(C)C)C[C@@H]1N    0.30
CN[C@@H]1CCN(c2nc3c(cc2F)c(=O)c(C(=O)O)cn3C(C)(C)C)C1    0.00
CC(C)(C)n1cc(C(=O)O)c(=O)c2cc(F)c(N3CC[C@H](N)C3)nc21    -0.89
C[C@@H]1C[C@H](N)CN1c1nc2c(cc1F)c(=O)c(C(=O)O)cn2C(C)(C)C    0.90

Specify reported log10 MIC for the molecule shown: C[C@H]1CN(c2nc3c(cc2F)c(=O)c(C(=O)O)cn3C(C)(C)C)C[C@H]1N
0.00

Specify reported log10 MIC for the molecule shown: C[C@@H]1CN(c2nc3c(cc2F)c(=O)c(C(=O)O)cn3C(C)(C)C)C[C@H]1N
-0.30

Specify reported log10 MIC for the molecule shown: CN(C)[C@H]1CCN(c2nc3c(cc2F)c(=O)c(C(=O)O)cn3C(C)(C)C)C1
0.30

Specify reported log10 MIC for the molecule shown: CN(C)C1CCN(c2nc3c(cc2F)c(=O)c(C(=O)O)cn3C(C)(C)C)C1 (centres undefined)
0.00

Specify reported log10 MIC for the molecule shown: CC1(C)CN(c2nc3c(cc2F)c(=O)c(C(=O)O)cn3C(C)(C)C)C[C@@H]1N
0.60

Specify reported log10 MIC for the molecule shown: C[C@@H]1CN(c2nc3c(cc2F)c(=O)c(C(=O)O)cn3C(C)(C)C)C[C@@H]1N
0.00
